- PROTOCOL DETAILS: Inhibition of Escherichia coli MurD ligase
ASSAY METRIC: pIC50
When answering, recall that pIC50 equals minus log10 of the concentration in mol/L, and write that number alone.

Exam item: Fill in the blank: the reported pIC50 of `CCCCOc1ccc2cc(S(=O)(=O)N[C@@H](CCC(=O)O)C(=O)O)ccc2c1` is ____.
Marked response: 3.15

Exam item: Fill in the blank: the reported pIC50 of `O=C(N/N=C/c1ccc(O)c(O)c1O)c1n[nH]c2ccccc12` is ____.
Marked response: 3.49

###

- PROTOCOL DETAILS: Inhibition of Escherichia coli MurD ligase assessed as addition of D-[3H]glu to UDP-N-acetyl-muramoyl-L-alanine after 30 mins
ASSAY METRIC: Ki
Record the result as a number with its unit.

The examples below pair each entry with its known result.
| SMILES REPR | ASSAY METRIC | RESULT |
| --- | --- | --- |
| N#Cc1ccc(COc2ccc3cc(S(=O)(=O)Nc4cc(C(=O)O)cc(C(=O)O)c4)ccc3c2)c(F)c1 | Ki | 34 µM |
| CCCCOc1ccc2cc(S(=O)(=O)N[C@H](CCC(=O)O)C(=O)O)ccc2c1 | Ki | 192 µM |
| CCCCOc1ccc2cc(S(=O)(=O)Nc3ccc(C(=O)O)cc3C(=O)O)ccc2c1 | Ki | 87 µM |
| N#Cc1ccc(COc2ccc3cc(S(=O)(=O)Nc4ccc(O)cc4C(=O)O)ccc3c2)c(F)c1 | Ki | 32 µM |
| N#Cc1ccc(COc2ccc3cc(S(=O)(=O)Nc4ccc(C(=O)O)cc4C(=O)O)ccc3c2)c(F)c1 | Ki | 5.8 µM |

Exam item: Fill in the blank: the reported Ki of `N#Cc1ccc(COc2ccc3cc(S(=O)(=O)N[C@H](CCC(=O)O)C(=O)O)ccc3c2)c(F)c1` is ____.
Marked response: 58 µM

Exam item: Fill in the blank: the reported Ki of `N#Cc1ccc(COc2ccc3cc(S(=O)(=O)Nc4cc(C(=O)O)ccc4C(=O)O)ccc3c2)c(F)c1` is ____.
Marked response: 26 µM

###

- Tested on: Escherichia coli
- PROTOCOL DETAILS: Inhibition of Escherichia coli MurD ligase assessed as residual activity at 500 uM after 30 mins
ASSAY METRIC: Activity (%)
Numeric answer only, unit % assumed.

The examples below pair each entry with its known result.
| SMILES REPR | ASSAYED SYSTEM | RESULT |
| --- | --- | --- |
| CCCCOc1ccc2cc(S(=O)(=O)Nc3cc(C(=O)O)cc(C(=O)O)c3)ccc2c1 | Escherichia coli | 70 |
| N#Cc1ccc(COc2ccc3cc(S(=O)(=O)Nc4ccc(CC(=O)O)cc4)ccc3c2)c(F)c1 | Escherichia coli | 64 |
| CCCCOc1ccc2cc(S(=O)(=O)Nc3ccc(CC(=O)O)cc3)ccc2c1 | Escherichia coli | 97 |

Exam item: Fill in the blank: the reported Activity of `CCCCOc1ccc2cc(S(=O)(=O)Nc3ccc(O)cc3C(=O)O)ccc2c1` is ____.
Marked response: 76

Exam item: Fill in the blank: the reported Activity of `CCCCOc1ccc2cc(S(=O)(=O)N3CCC(C(=O)O)CC3)ccc2c1` is ____.
Marked response: 97

Exam item: Fill in the blank: the reported Activity of `N#Cc1ccc(COc2ccc3cc(S(=O)(=O)N4CCC(C(=O)O)CC4)ccc3c2)c(F)c1` is ____.
Marked response: 94

Exam item: Fill in the blank: the reported Activity of `CCCCOc1ccc2cc(S(=O)(=O)Nc3cc(C(=O)O)ccc3C(=O)O)ccc2c1` is ____.
Marked response: 78

Exam item: Fill in the blank: the reported Activity of `N#Cc1ccc(COc2ccc3cc(S(=O)(=O)Nc4ccc(O)cc4C(=O)O)ccc3c2)c(F)c1` is ____.
Marked response: 3
